Measured values drawn from patent US20240043386A1 for this set.

Target: F508delCFTR (Homo sapiens, UniProt P13569, DEL508-508)
Construct: expressed in transfected cells; host or cells: CFBE41o- human lung-derived epithelial cell line, doxycycline-inducible expression
Sequence (P13569 with tags, fused parts or gaps DEL508-508): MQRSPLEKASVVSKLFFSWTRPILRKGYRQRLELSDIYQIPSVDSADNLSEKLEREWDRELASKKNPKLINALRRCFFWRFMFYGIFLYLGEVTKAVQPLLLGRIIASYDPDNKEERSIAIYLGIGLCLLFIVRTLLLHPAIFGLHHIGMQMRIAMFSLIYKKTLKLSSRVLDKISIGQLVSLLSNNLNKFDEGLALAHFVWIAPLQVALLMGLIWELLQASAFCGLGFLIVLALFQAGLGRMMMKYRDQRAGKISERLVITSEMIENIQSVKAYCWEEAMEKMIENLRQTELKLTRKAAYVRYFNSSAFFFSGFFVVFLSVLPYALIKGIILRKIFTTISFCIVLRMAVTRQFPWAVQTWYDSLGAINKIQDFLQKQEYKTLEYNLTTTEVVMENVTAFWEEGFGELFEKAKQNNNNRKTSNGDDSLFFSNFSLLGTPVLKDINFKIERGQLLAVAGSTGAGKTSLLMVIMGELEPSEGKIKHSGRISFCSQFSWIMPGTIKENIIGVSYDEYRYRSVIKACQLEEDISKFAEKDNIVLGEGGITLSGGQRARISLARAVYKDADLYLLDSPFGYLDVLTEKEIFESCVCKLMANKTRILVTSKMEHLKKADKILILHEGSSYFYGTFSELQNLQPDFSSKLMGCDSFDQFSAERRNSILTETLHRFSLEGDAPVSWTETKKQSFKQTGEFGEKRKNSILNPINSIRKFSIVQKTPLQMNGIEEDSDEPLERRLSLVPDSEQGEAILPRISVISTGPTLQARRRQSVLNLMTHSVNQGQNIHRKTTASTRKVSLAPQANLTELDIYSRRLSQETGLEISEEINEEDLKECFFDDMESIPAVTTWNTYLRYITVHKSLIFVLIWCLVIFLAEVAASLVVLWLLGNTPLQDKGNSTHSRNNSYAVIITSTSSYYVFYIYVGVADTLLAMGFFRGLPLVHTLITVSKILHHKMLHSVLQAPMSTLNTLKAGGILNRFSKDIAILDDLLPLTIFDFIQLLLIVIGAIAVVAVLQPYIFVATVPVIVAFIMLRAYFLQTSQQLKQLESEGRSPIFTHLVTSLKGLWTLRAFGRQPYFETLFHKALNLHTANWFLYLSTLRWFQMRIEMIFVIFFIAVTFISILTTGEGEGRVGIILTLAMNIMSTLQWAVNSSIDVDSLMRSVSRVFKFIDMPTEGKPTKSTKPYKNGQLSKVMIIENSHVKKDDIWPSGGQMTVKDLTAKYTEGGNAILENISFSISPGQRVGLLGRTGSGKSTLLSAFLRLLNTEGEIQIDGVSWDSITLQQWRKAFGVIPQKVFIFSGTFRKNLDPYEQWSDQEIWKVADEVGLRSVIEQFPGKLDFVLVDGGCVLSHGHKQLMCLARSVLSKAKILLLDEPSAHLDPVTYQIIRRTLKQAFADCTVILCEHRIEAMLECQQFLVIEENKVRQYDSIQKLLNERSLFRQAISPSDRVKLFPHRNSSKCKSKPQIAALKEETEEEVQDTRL
Test: Cell Surface Expression-Horse Radish Peroxidase (CSE-HRP) assay in CFBE41o-F508delCFTR-HRP cells
Format: cell-based
Details: without co-corrector; normalized to on-plate positive control corrector (2 μM)
Measured Quantity: Maximum % activity (without co-corrector) (%)

[I] CCOc1ncccc1[C@@H]1C[C@]1(C(=O)NS(=O)(=O)c1cccc2nc(C)ccc12)c1cc(C)ccc1OC (single isomer, unassigned)
[II] COc1cncc([C@@H]2C[C@]2(C(=O)NS(=O)(=O)c2cccc3nc(C)ccc23)c2cc(C)ccc2OC)c1 (single isomer, unassigned) [Example 51]
[III] COc1ccc(C)cc1[C@]1(C(=O)NS(=O)(=O)c2cccc3nc(C)ccc23)C[C@@H]1c1cncc(C)n1 (single isomer, unassigned)
Which order do the above compounds take when sorted by rising Maximum % activity (without co-corrector)? Smallest first. Thanks in advance for listing the labels in the requested order.
II, I, III
(II: 108%, I: 539%, III: 783%)
